Read-out: Glutathione S-Transferase (GSTA2), GSTA2 (gene 2939)
Experiment: LTEA_HepaRG_GSTA2: Life Technologies and Expression Analysis (LTEA) Assay for Glutathione S-Transferase (GSTA2) using HepaRG (AID 2283497)
Conditions: mRNA level, 48 h; actives raise or lower the signal
Experimental: LTEA_HepaRG is a cell based, multiplexed-readout assay that uses HepaRG, a human liver cell line, with measurements taken at 48 hours after chemical dosing on a 96-well plate.LTEA_HepaRG_GSTA2 is one of 102 assay component(s) measured in the LTEA HepaRG cell culture assay. It is a marker of Oxidative Stress.Data from the assay component LTEA_HepaRG_GSTA2 was analyzed into 1 endpoint. […]
Activity calls are given as the source filed them. Rule for the calls: active = hit-call score of the fitted dose curve at least 0.9, where 1 is the maximum; inactive = score below 0.9.
endpointName: AC50

> print(dat)
                                    compound  endpointname  recordedmeasurement
 1  CCOP(=O)(SC(C)CC)N1CCSC1=O (stereo not drawn)          AC50             inactive
 2                                 N#CSCSC#N          AC50     76.2 µM (active)
 3  CC(C)=CC1C(C(=O)OCN2C(=O)C3=C(CCCC3)C2=O)C1(C)C (stereo not drawn)          AC50             inactive
 4                                 S=C1NCCN1          AC50             inactive
 5  CCOC(=O)CC(SP(=O)(OC)OC)C(=O)OCC (stereo not drawn)          AC50             inactive
 6  CCc1cccc(C)c1N(C(=O)CCl)C(C)COC (stereo not drawn)          AC50       18 µM (active)
 7                 CNC(=O)ON=C(SC)C(=O)N(C)C          AC50             inactive
 8          C#CC(C)(C)NC(=O)c1cc(Cl)cc(Cl)c1          AC50             inactive
 9  CON=C(C(=O)OC)c1ccccc1CON=C(C)c1cccc(C(F)(F)F)c1          AC50             inactive
10     CCCOCC(=Nc1ccc(Cl)cc1C(F)(F)F)n1ccnc1          AC50       35 µM (active)
11    Cc1ccn2nc(S(=O)(=O)Nc3c(F)cccc3F)nc2n1          AC50             inactive
12  Cc1nn(-c2cc(NS(C)(=O)=O)c(Cl)cc2Cl)c(=O)n1C(F)F          AC50             inactive
13             Nc1c(Cl)cc([N+](=O)[O-])cc1Cl          AC50     64.7 µM (active)

====

Read-out: Macrophage colony-stimulating factor (MCSF), CSF1 (gene 1435)
Assay: BSK_hDFCGF_MCSF: BioMAP Diversity Plus: hDFCGF Assay for Macrophage colony-stimulating factor (MCSF) Biomarker Activity (AID 2283060)
Details: primary human foreskin fibroblasts; actives raise or lower the signal
The source made the active and inactive calls. How the source made its calls: active means hit-call score of the fitted dose curve at least 0.9, where 1 is the maximum; inactive means score below 0.9.
Possible outcomes: active, inactive

compound	classAssignment
CSc1nc(NC(C)C)nc(NC(C)C)n1	inactive
CCc1cccc(CC)c1N(COC)C(=O)CCl	active
CC(C1CC1)C(O)(Cn1cncn1)c1ccc(Cl)cc1 (stereo unspecified)	inactive
CC[C@H](C)[C@H]1O[C@]2(C=C[C@@H]1C)C[C@@H]1C[C@@H](C/C=C(\C)[C@@H](O[C@H]3C[C@H](OC)[C@@H](O[C@H]4C[C@H](OC)[C@@H](NC)[C@H](C)O4)[C@H](C)O3)[C@@H](C)/C=C/C=C3\CO[C@@H]4[C@H](O)C(C)=C[C@@H](C(=O)O1)[C@]34O)O2	active
CCCCN(CC)c1c([N+](=O)[O-])cc(C(F)(F)F)cc1[N+](=O)[O-]	active
CON=C(C(=O)OC)c1ccccc1CON=C(C)c1cccc(C(F)(F)F)c1	inactive
